All values here come from ChEMBL document CHEMBL1135694.

protocol_details: tmax in dog was determined; range 30-45
conditions: in vivo
property_label: Tmax (min)

> print(dat)
                                 cpd.smiles  result.number
1  Cc1cc(C)c(C)c(Cn2ccc3c(/C=N/NC(=O)c4ccc(O)c(C#N)c4)cccc32)c1C             30

###

protocol_details: Turnover in rat liver microsomes
Format: ADME, Microsome
The following compounds are shown together with reported Metabolism values.
property_label: Metabolism

> print(dat)
                                 cpd.smiles  property.label           result
1  O=C(N/N=C/c1ccc(C(=O)N2CCN(Cc3ccc(Cl)cc3)CC2)c2ccccc12)c1ccc(O)c(Cl)c1      Metabolism   77 pmol/min/mg
2  COc1cc(/C=N/NC(=O)c2ccc(O)c(Cl)c2)ccc1NC(=O)Cc1csc2ccccc12      Metabolism   74 pmol/min/mg
3  O=C(N/N=C/c1ccc(CC(=O)N2CCN(Cc3ccccc3)CC2)c2ccccc12)c1ccc(O)c(Cl)c1      Metabolism  359 pmol/min/mg
4  COc1cc(NC(=O)Cc2cccc(C(F)(F)F)c2)ccc1/C=N/NC(=O)c1ccc(O)c(C#N)c1      Metabolism   51 pmol/min/mg

###

The following molecules are shown together with reported Metabolism values.
protocol_details: Turnover in rat liver microsomes
Type: ADME, Microsome
property_label: Metabolism

> print(dat)
                                 cpd.smiles           result
1  O=C(N/N=C/c1ccc(NC(=O)C2CCCC2)c2ccccc12)c1ccc(O)c(Cl)c1  134 pmol/min/mg
2  COc1cc(NC(=O)CCc2ccc(C(F)(F)F)cc2)ccc1/C=N/NC(=O)c1ccc(O)c(Cl)c1.O  107 pmol/min/mg
3  N#Cc1cc(C(=O)N/N=C/c2ccc(N(C(=O)C3CCCC3)C(=O)C3CCCC3)c3ccccc23)ccc1O  250 pmol/min/mg
4  CCN(CC)C(=O)Cc1ccc(/C=N/NC(=O)c2ccc(O)c(C#N)c2)c2ccccc12  130 pmol/min/mg
5  N#Cc1cc(C(=O)N/N=C/c2ccc(OCC(=O)N3CC=C(c4ccc(Br)cc4)CC3)c3ccccc23)ccc1O   50 pmol/min/mg
6  N#Cc1cc(C(=O)N/N=C/c2ccc(CO)c3ccccc23)ccc1O   37 pmol/min/mg
7  O=C(N/N=C/c1ccc(CC(=O)N2CCN(c3ccc(F)cc3)CC2)c2ccccc12)c1ccc(O)c(Cl)c1  160 pmol/min/mg
8  CCN(CC)C(=O)Cn1ccc2c(/C=N/NC(=O)c3ccc(O)c(Cl)c3)cccc21  165 pmol/min/mg
9  CC(C)S(=O)(=O)c1ccc(/C=N/NC(=O)c2ccc(O)c(Cl)c2)c2ccccc12  110 pmol/min/mg

###

The following compounds are shown together with reported pIC50 values.
tgt: Glucagon receptor (Homo sapiens, UniProt P47871)
Sequence (P47871 whole entry): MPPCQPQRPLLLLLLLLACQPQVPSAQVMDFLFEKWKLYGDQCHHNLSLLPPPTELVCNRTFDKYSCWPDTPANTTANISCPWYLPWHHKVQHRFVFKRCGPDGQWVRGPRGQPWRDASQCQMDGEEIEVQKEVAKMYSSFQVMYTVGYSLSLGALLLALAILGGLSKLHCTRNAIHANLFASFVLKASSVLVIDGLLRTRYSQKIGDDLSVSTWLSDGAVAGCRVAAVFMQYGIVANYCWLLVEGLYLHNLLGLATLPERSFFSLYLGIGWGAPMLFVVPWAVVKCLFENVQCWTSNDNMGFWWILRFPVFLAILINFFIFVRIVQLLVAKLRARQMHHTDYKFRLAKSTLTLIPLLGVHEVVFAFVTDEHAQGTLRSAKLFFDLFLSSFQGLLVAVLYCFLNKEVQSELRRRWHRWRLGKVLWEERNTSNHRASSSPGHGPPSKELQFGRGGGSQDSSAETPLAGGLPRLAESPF
protocol_details: In vitro binding affinity for recombinant human glucagon receptor (hGGR) in BHK cells
pIC50: −log10 of the molar value.
property_label: pIC50

> print(dat)
                                    compound  result.number
 1  O=C(N/N=C/c1ccc(OCCNCc2ccc(OC(F)(F)F)cc2)c2ccccc12)c1ccc(O)c(Cl)c1           7.56
 2  O=C(N/N=C/c1ccc(OCCNCc2ccc(Cl)c(Cl)c2)c2ccccc12)c1ccc(O)c(Cl)c1           7.83
 3  Cc1cc(C)c(Cn2ccc3c(/C=N/NC(=O)c4ccc(O)c(Cl)c4)cccc32)c(C)c1           8.24
 4  NC(=O)[C@H](Cc1ccccc1)NCc1ccc(/C=N/NC(=O)c2ccc(O)c(Cl)c2)c2ccccc12           7.21
 5  COc1cc(NC(=O)Cc2ccc(Cl)cc2)ccc1/C=N/NC(=O)c1ccc(O)c(C#N)c1           7.54
 6  O=C(N/N=C/c1cccc2c1ccn2Cc1ccc(Cl)c(Cl)c1)c1ccc(O)c(Cl)c1           7.56
 7  O=C(N/N=C/c1ccc(CC(=O)N2CCN(c3ccccc3F)CC2)c2ccccc12)c1ccc(O)c(Cl)c1           8.10
 8  CN(C)c1ccc(C(=O)n2cc(/C=N/NC(=O)c3ccc(O)c(C#N)c3)c3ccccc32)cc1           7.72
 9  N#Cc1cc(C(=O)N/N=C/c2ccc(C(=O)N3CCN(Cc4ccc(Cl)cc4)CC3)c3ccccc23)ccc1O           8.31
10  COc1cc(NC(=O)Cc2cccc(C(F)(F)F)c2)ccc1/C=N/NC(=O)c1ccc(O)c(C#N)c1           7.32
11  O=C(N/N=C/c1ccc(OCC(=O)N2CCC(O)(c3ccc(Br)cc3)CC2)c2ccccc12)c1ccc(O)c(Cl)c1           7.94
12  CC1CCCCN1C(=O)Cc1ccc(/C=N/NC(=O)c2ccc(O)c(Cl)c2)c2ccccc12 (stereo not drawn)           8.08
13  O=C(N/N=C/c1ccc(CC(=O)N2CCN(Cc3ccccc3)CC2)c2ccccc12)c1ccc(O)c(Cl)c1           8.04
14  CN1CCN(C(=O)Cc2ccc(/C=N/NC(=O)c3ccc(O)c(Cl)c3)c3ccccc23)CC1           6.57
15  O=C(N/N=C/c1ccc2c(ccn2Cc2ccc(OC(F)(F)F)cc2)c1)c1ccc(O)c(Cl)c1           6.54
16  O=C(N/N=C/c1cccc2c(OCc3ccc(OC(F)(F)F)cc3)cccc12)c1ccc(O)c(Cl)c1           7.89
17  COc1cc(OCCNCc2ccc(C(F)(F)F)cc2)ccc1/C=N/NC(=O)c1ccc(O)c(Cl)c1           6.88
18  CC1CCCCN1C(=O)Cc1ccc(/C=N/NC(=O)c2ccc(O)c(C#N)c2)c2ccccc12 (stereo not drawn)           7.94

###

Species: Rattus norvegicus
protocol_details: Inhibitory activity against glucogon-stimulated glucose production from isolated primary rat hepatocytes
conditions: hepatocyte
pKi: −log10 of the molar value.
property_label: pKi

> print(dat)
                                 cpd.smiles  result.number
1  Cc1cc(C)c(C)c(Cn2ccc3c(/C=N/NC(=O)c4ccc(O)c(C#N)c4)cccc32)c1C           7.85

###

protocol_details: Turnover in rat liver microsomes
Format: ADME, Microsome
The following compounds are shown together with reported Metabolism values.
property_label: Metabolism (pmol/min/mg)

> print(dat)
                                   compound  result.number
1  Cc1cc(C)c(C)c(Cn2ccc3c(/C=N/NC(=O)c4ccc(O)c(Cl)c4)cccc32)c1C            105
2  CCC1CCCCN1C(=O)Cc1ccc(/C=N/NC(=O)c2ccc(O)c(Cl)c2)c2ccccc12 (configuration not stated)            279
3  O=C(N/N=C/c1ccc(CC(=O)N2CCN(Cc3ccc(Cl)cc3)CC2)c2ccccc12)c1ccc(O)c(Cl)c1            101
4  O=C(COc1ccc(/C=N/NC(=O)c2ccc(O)c(Cl)c2)c2ccccc12)NC1CCN(Cc2ccccc2)C1 (configuration not stated)            187
5  CN1CCN(C(=O)Cc2ccc(/C=N/NC(=O)c3ccc(O)c(Cl)c3)c3ccccc23)CC1            283
6  O=C(N/N=C/c1ccc(CO)c2ccccc12)c1ccc(O)c(F)c1             89
7  COc1cc(OCCN2CCc3ccccc3C2)ccc1/C=N/NC(=O)c1ccc(O)c(Cl)c1            322

###

protocol_details: tmax after peroral administration (2 mg/kg) in dog was determined; range 30-45
Format: ADME, organism-based, Canis lupus familiaris
conditions: in vivo, po
property_label: Tmax (min)

> print(dat)
                                 cpd.smiles  uom  result.number
1  Cc1cc(C)c(C)c(Cn2ccc3c(/C=N/NC(=O)c4ccc(O)c(C#N)c4)cccc32)c1C  min             30

###

protocol_details: Half life period after intravenous administration (0.5 mg/kg) in dog was determined
Assay type: ADME, organism-based, Canis lupus familiaris
conditions: in vivo
property_label: half-life (h)

> print(dat)
                                 cpd.smiles  property.label  result.number
1  Cc1cc(C)c(C)c(Cn2ccc3c(/C=N/NC(=O)c4ccc(O)c(C#N)c4)cccc32)c1C       half-life           1.11

###

protocol_details: Turnover in rat liver microsomes
Assay type: ADME, Microsome
property_label: Metabolism (pmol/min/mg)

> print(dat)
                                 cpd.smiles  property.label          uom  result.number
1  O=C(N/N=C/c1ccc(OCCNCCc2ccc(Br)cc2)c2ccccc12)c1ccc(O)c(Cl)c1      Metabolism  pmol/min/mg            250
2  N#Cc1cc(C(=O)N/N=C/c2ccc(C(=O)N3CCN(Cc4ccc(Cl)cc4)CC3)c3ccccc23)ccc1O      Metabolism  pmol/min/mg             53
3  O=C(N/N=C/c1ccc(CO)c2ccccc12)c1ccc(O)c(Cl)c1      Metabolism  pmol/min/mg             75
4  CCN(CC)C(=O)COc1ccc(/C=N/NC(=O)c2ccc(O)c(Cl)c2)c2ccccc12      Metabolism  pmol/min/mg            302
5  CC(C)CS(=O)(=O)c1ccc(/C=N/NC(=O)c2ccc(O)c(Cl)c2)c2ccccc12      Metabolism  pmol/min/mg            110
6  O=C(N/N=C/c1ccc(OCC(=O)N2CC=C(c3ccc(Br)cc3)CC2)c2ccccc12)c1ccc(O)c(Cl)c1      Metabolism  pmol/min/mg             44
7  COc1cc(/C=N/NC(=O)c2ccc(O)c(Cl)c2)ccc1NC(=O)COc1ccc(OC(F)(F)F)cc1      Metabolism  pmol/min/mg            136
8  CCN(CC)C(=O)Cc1ccc(/C=N/NC(=O)c2ccc(O)c(Cl)c2)c2ccccc12      Metabolism  pmol/min/mg            323
9  O=C(N/N=C/c1ccc(CC(=O)N2CCN(c3ccccc3F)CC2)c2ccccc12)c1ccc(O)c(Cl)c1      Metabolism  pmol/min/mg            178
